These entries and their values trace back to PubChem BioAssay (NCI).

- Test system: U251 CNS
- Assay notes: NCI tumour cell line growth inhibition, 48 h
Parameter measured: TGI

Compound: O=c1c2ccccc2nc(Cc2nc(-c3ccc(Cl)cc3)cs2)n1-c1ccc(Cl)cc1
TGI: > 100 µM

Compound: COC(=O)Nc1nc2ccc(C3(c4ccc(F)cc4)OCCO3)cc2[nH]1
TGI: > 100 µM

Compound: c1ccc(CNc2nncc3[nH]cnc23)cc1
TGI: > 100 µM

// TGI lookup, compound = CCOC(=O)C(=O)Nc1ccccc1CC , result: > 100 µM

###

molecules and their reported GI50
- System: T-47D breast
- Assay notes: NCI tumour cell line growth inhibition, 48 h

Solved entries (count: 5):
Molecule: COc1ccc2[nH]c3c4[nH]c5ccc(OC)cc5c4c4c(c3c2c1)C(=O)NC4=O
Meas value: > 25 µM

Molecule: c1ccc(Sc2ccc(Cc3nc4cc5ccccc5cc4[nH]3)cc2)cc1
Meas value: 5.2 µM

Molecule: S=c1ssc(N2CCOCC2)c1Cl
Meas value: > 100 µM

Molecule: C/C(=N\Nc1ccc(Cl)cn1)c1ccc2ccccc2n1
Meas value: 3.48 µM

Molecule: O=S(=O)(c1ccc(NC(=S)NC23CC4CC(CC(C4)C2)C3)cc1)N1CCCCC1
Meas value: 3.28 µM

Summary for this molecule, COc1ccc(C(=O)c2cc(C)c(OC)c(C)c2)cc1OC(=O)CCl : GI50 is 10.5 µM

###

- Test system: SK-MEL-28 melanoma
- Assay notes: NCI tumour cell line growth inhibition, 48 h
Parameter measured: TGI

Example cases with answers are listed next.
Compound: CC(C)=C[C@H]1CCC2(OCCO2)[C@]1(C)COCc1ccccc1
Test system: SK-MEL-28 melanoma
TGI: > 100 µM

Compound: CCOC(=O)CCC(=O)C1c2cccc(O)c2C(=O)c2c(O)cc(C)cc21 (centres undefined)
Test system: SK-MEL-28 melanoma
TGI: 2.92 µM

Reading of TGI for CCOC(=O)c1c(N2CCOCC2)[nH]c(=O)c(C(c2c(Cl)cccc2Cl)c2c(O)c(C(=O)OCC)c(N3CCOCC3)[nH]c2=O)c1O with SK-MEL-28 melanoma: 4.19 µM

###

- Test system: MDA-MB-231 breast
- Assay notes: NCI tumour cell line growth inhibition, 48 h
Parameter measured: TGI

Sure, the documented TGI for CCOC(=O)c1cn2c(n1)sc1cc(Cl)ccc12 is > 100 µM

Record CCOC(=O)Cc1nc2cc(F)c(F)cc2[nH]c1=O , field TGI: > 100 µM

The molecule NS(=O)(=O)c1ccc(-c2ccc3c(NC(=O)C4CC4)n[nH]c3c2)cc1 showed TGI equal to > 25 µM

So, CCO/C=N\C1=C(C#N)SC2=N/C(=C\c3ccc(OC)cc3)C(=O)N21 ? Its TGI was > 100 µM

###

- System: SK-MEL-5 melanoma
- Assay notes: NCI tumour cell line growth inhibition, 48 h
Parameter measured: TGI

Answered examples (5):
Compound: COc1ccc(S(=O)(=O)c2ccccc2[N+](=O)[O-])cc1
TGI: > 100 µM

Compound: Clc1cc(Cl)c2ns[s+]c2c1Cl
TGI: > 100 µM

Compound: CN(C)CCCN=c1c2ccccc2n(O)c2ccccc12
TGI: > 100 µM

Compound: CCOC(=O)Cc1nc2cc(F)c(F)cc2[nH]c1=O
TGI: > 100 µM

Compound: COC(=O)CC1N=C(NC#N)N(CCc2c[nH]c3ccccc23)C1=O (stereo not given)
TGI: > 100 µM

Simply: C=CCCCCC/C=C\[C@@H](O)C#CC#C/C=C/CO , SK-MEL-5 melanoma, TGI = > 100 µM

Record CCOC1=NC(O)c2cccn2-c2sccc21 (stereo not given) / SK-MEL-5 melanoma, TGI recorded as > 100 µM

Query CC1CC2=C(S(=O)(=O)c3ccccc3)CC(S(=O)(=O)c3ccccc3)(S(=O)(=O)c3ccccc3)CC21 (stereo not given) on SK-MEL-5 melanoma; TGI returned: > 100 µM

Let me check: CC1S/C(=N\N=C2/C(=O)Nc3ccc(Br)cc32)N(C2CCCCC2)C1=O (stereo not given) , system SK-MEL-5 melanoma, measured TGI is > 100 µM
